Catalogue of molecules with associated solubility kinetic
Conditions: buffer; pH 7.4; 200.0 µM

Below, 5 molecules whose answers are already recorded.
Exercise: Entry NC(=O)NC(=O)CN1C(=O)NC2(CCOc3ccccc32)C1=O (stereo unspecified) has what solubility kinetic?
Key: > 47.7 µg/mL

Exercise: Entry "O=C(NCCC1=CCCCC1)C1CCN(C(=O)Cc2ccccc2)CC1" has what solubility kinetic?
Key: > 53.2 µg/mL

Exercise: Entry Cc1ccc(NC(=O)CCCC(=O)OC(C)C(=O)c2ccccc2)cc1 (stereo unspecified) has what solubility kinetic?
Key: > 53 µg/mL

Exercise: Entry "O=C(COc1ccccc1Cl)NCCNC(=O)c1ccccn1" has what solubility kinetic?
Key: > 50.1 µg/mL

Exercise: Entry "CCN(C(=O)Cn1c([N+](=O)[O-])cnc1C)c1ccccc1" has what solubility kinetic?
Key: > 43.2 µg/mL

Next:
Exercise: Entry "CCOC(=O)c1cnc2c(cnn2C)c1NCCCn1ccnc1" has what solubility kinetic?
Key: > 49.3 µg/mL

Exercise: Entry "O=C1Nc2ccccc2S/C1=C/c1cccs1" has what solubility kinetic?
Key: < 0.6 µg/mL

Exercise: Entry "O=C(NCCc1ccccn1)c1cncc(Br)c1" has what solubility kinetic?
Key: > 45.9 µg/mL

Exercise: Entry "CN1CCCN(C(=O)c2ccc(Cl)s2)CC1" has what solubility kinetic?
Key: > 38.8 µg/mL

Exercise: Entry CC(OC(=O)COc1ccccc1)C(=O)NC1CCCC1 (stereo unspecified) has what solubility kinetic?
Key: > 43.7 µg/mL

Exercise: Entry "N#Cc1cccc(C(=O)Nc2cc(S(=O)(=O)N3CCOCC3)ccc2N2CCCC2)c1" has what solubility kinetic?
Key: > 66.1 µg/mL

* * *

Conditions: buffer; pH 7.4; 200.0 µM
Catalogue of compounds with associated solubility kinetic

Below, 5 compounds whose answers are already recorded.
Exercise: Entry CCCC(C)C(=O)Nc1ccc(S(=O)(=O)N2CCCC2)cc1 (configuration not stated) has what solubility kinetic?
Key: > 48.7 µg/mL

Exercise: Entry CC1(C)OC2C(O1)[C@@H](CO)O[C@H]2n1cnc2c(N)ncnc21 (some centres not stated) has what solubility kinetic?
Key: > 46.1 µg/mL

Exercise: Entry "Cn1c(N)c(C(=O)CSc2nnc(N)s2)c(=O)n(C)c1=O" has what solubility kinetic?
Key: > 49.3 µg/mL

Exercise: Entry "CS(=O)(=O)N1CCC(C(=O)NCc2ccccc2)CC1" has what solubility kinetic?
Key: > 44.5 µg/mL

Exercise: Entry "CCC(CC)c1nnc(NC(=O)c2cccc(S(=O)(=O)N3CCOCC3)c2)s1" has what solubility kinetic?
Key: > 63.7 µg/mL

Next:
Exercise: Entry "O=C(Nc1ccccc1)C1CCN(C(=O)c2ccco2)CC1" has what solubility kinetic?
Key: > 44.8 µg/mL

Exercise: Entry COc1cccc(C(=O)NN2C(=S)N(c3ccccc3)C(=O)C2CC(N)=O)c1 (configuration not stated) has what solubility kinetic?
Key: > 59.8 µg/mL

* * *

Conditions: buffer; pH 7.4; 200.0 µM
reported-endpoint: solubility kinetic (µg/mL)
Record the value in µg/mL, omitting the unit from your answer.

Below, 3 molecules whose answers are already recorded.
Exercise: Entry CC1CCCCC12NC(=O)N(CC(=O)N1CCc3ccccc31)C2=O (configuration not stated) has what solubility kinetic?
Key: 3.7

Exercise: Entry Cc1ccc(S(=O)(=O)N(CC2CO2)c2cccc([N+](=O)[O-])c2)cc1 (configuration not stated) has what solubility kinetic?
Key: 43.9

Exercise: Entry CC1CCCC(C)N1C(=O)COC(=O)Cc1ccc(F)cc1 (configuration not stated) has what solubility kinetic?
Key: 30.9

Next:
Exercise: Entry "COc1cc(C)c(Cl)cc1S(=O)(=O)NCc1ccccn1" has what solubility kinetic?
Key: 34.5

Exercise: Entry Cc1ccc2c(CN3CC(C)CC(C)C3)cc(=O)oc2c1 (configuration not stated) has what solubility kinetic?
Key: 4.3

* * *

Conditions: buffer; pH 7.4; 200.0 µM
reported-endpoint: solubility kinetic

Below, 2 compounds whose answers are already recorded.
Exercise: Entry "CN(C)/C=C/C(=O)c1cc(N2CCOCC2)ccc1[N+](=O)[O-]" has what solubility kinetic?
Key: > 45.8 µg/mL

Exercise: Entry "Cc1cccc(NC(=S)N(C)C)c1C" has what solubility kinetic?
Key: > 31.2 µg/mL

Next:
Exercise: Entry Cc1ccsc1C(=O)N(C)C1CCS(=O)(=O)C1 (stereo not drawn) has what solubility kinetic?
Key: > 41 µg/mL

* * *

Catalogue of compounds with associated solubility kinetic
Conditions: buffer; pH 7.4; 200.0 µM

Exercise: Entry "Nc1c(Cl)cc(Cl)cc1C(=O)OCC(=O)N1CCOCC1" has what solubility kinetic?
Key: > 50 µg/mL

Next:
Exercise: Entry "CCN(Cc1cc(=O)[nH]c2ccccc12)C(=O)C(C)C" has what solubility kinetic?
Key: > 40.9 µg/mL

Exercise: Entry "O=C(Nc1ccccc1N1CCOCC1)c1ccc(Cl)nc1" has what solubility kinetic?
Key: > 47.7 µg/mL

Exercise: Entry CCCCCC(=O)NC(CC(=O)OC)c1ccc2c(c1)OCO2 (centres undefined) has what solubility kinetic?
Key: > 48.2 µg/mL

* * *

Catalogue of molecules with associated solubility kinetic
Conditions: buffer; pH 7.4; 200.0 µM

Below, 2 molecules whose answers are already recorded.
Exercise: Entry "Cn1cccc1C(=O)NCc1ccccn1" has what solubility kinetic?
Key: > 32.3 µg/mL

Exercise: Entry "O=C(COc1ccc2ccc(=O)oc2c1)NCc1ccccn1" has what solubility kinetic?
Key: > 46.5 µg/mL

Now for a further molecule.
Exercise: Entry "O=C(CSc1nnc(C2CC2)n1C1CC1)c1cccs1" has what solubility kinetic?
Key: > 45.8 µg/mL

* * *

Conditions: buffer; pH 7.4; 200.0 µM
reported-endpoint: solubility kinetic

Exercise: Entry CC(C)CCN1CCN(C2CSCCSC2)CC1CCO (configuration not stated) has what solubility kinetic?
Key: > 49.9 µg/mL

Exercise: Entry "C/C(=C\C(=O)c1ccc(Cl)s1)N(C)C" has what solubility kinetic?
Key: > 34.5 µg/mL

Exercise: Entry "Cc1nnc(SCC(=O)N(C)CC(=O)Nc2ccccc2Cl)s1" has what solubility kinetic?
Key: > 55.6 µg/mL

Exercise: Entry "COc1ccc(NC(=O)c2ccccc2SC)c(OC)c1" has what solubility kinetic?
Key: > 45.5 µg/mL

Exercise: Entry "CCN(CC)CCCNC(=S)Nc1ccc(Br)cc1" has what solubility kinetic?
Key: > 51.6 µg/mL

Exercise: Entry "O=C(c1ccccc1)C1CCN(C(=O)c2ccc(Cl)cc2)CC1" has what solubility kinetic?
Key: > 49.2 µg/mL

Next:
Exercise: Entry CC1(c2ccccc2Cl)NC(=O)N(CC(=O)Nc2ccc(N3CCOCC3)cc2)C1=O (configuration not stated) has what solubility kinetic?
Key: > 66.4 µg/mL

* * *

Settings: buffer; pH 7.4; 200.0 µM
reported-endpoint: solubility kinetic

Below, 3 molecules whose answers are already recorded.
Exercise: Entry "S=C(NCCCN1CCOCC1)N1CCOCC1" has what solubility kinetic?
Key: > 41 µg/mL

Exercise: Entry "O=C(/C=C/c1ccc([N+](=O)[O-])s1)N1CCCCC1" has what solubility kinetic?
Key: > 39.9 µg/mL

Exercise: Entry "O=C(OCC(=O)N1CCCC1)c1c[nH]c2ccccc12" has what solubility kinetic?
Key: > 40.8 µg/mL

Next:
Exercise: Entry "COC(=O)C1=C(C(=O)OC)SC(=C2C(=S)C(C)(C)N(C(=O)C(C)C)c3ccccc32)S1" has what solubility kinetic?
Key: < 1 µg/mL

Exercise: Entry "O=S(=O)(c1ccccc1)N1CCN(CCO)CC1" has what solubility kinetic?
Key: > 40.6 µg/mL
